tissue to tissue ratio at 24 h reference
Experiment: Biodistribution of 177Lu-labeled αMSH analogues in mice bearing SK-MEL-1 human melanoma
Conditions: male, NRG (NOD.Cg-Rag1tm1Mom Il2rgtm1Wjl/SzJ), mouse, tumour/muscle, total radioactivity, 24 h p.i., NRG mice, SK-MEL-1 melanoma
Please reply with the number alone, leaving off any unit.

1) CCCC[C@H](NC(=O)CN1CCC(NC(=O)[C@H](CCCCNC(=O)CN2CCN(CC(=O)O)CCN(CC(=O)O)CCN(CC(=O)O)CC2)NC(=O)[C@H](CCC(=O)O)NC(=O)CCCc2ccc(I)cc2)CC1)C(=O)N[C@H]1CC(=O)NCCCC[C@@H](C(N)=O)N(C)C(=O)[C@H](Cc2c[nH]c3ccccc23)NC(=O)[C@H](CCCNC(=N)N)N(C)C(=O)[C@@H](Cc2ccccc2)NC(=O)[C@H](Cc2c[nH]cn2)NC1=O [^177Lu-labeled CCZ01118, metal not drawn]    201

// switching to the query molecule
What the record says about CCCC[C@H](NC(=O)CN1CCC(NC(=O)[C@H](CCCCNC(=O)CN2CCN(CC(=O)O)CCN(CC(=O)O)CCN(CC(=O)O)CC2)NC(=O)CNC(=O)CCCc2ccc(I)cc2)CC1)C(=O)N[C@H]1CC(=O)NCCCC[C@@H](C(N)=O)N(C)C(=O)[C@H](Cc2c[nH]c3ccccc23)NC(=O)[C@H](CCCNC(=N)N)N(C)C(=O)[C@@H](Cc2ccccc2)NC(=O)[C@H](Cc2c[nH]cn2)NC1=O [^177Lu-labeled CCZ01148, metal not drawn] : tissue to tissue ratio at 24 h is 20.5

###

Experiment: Biodistribution of 177Lu-labeled αMSH analogues in mice bearing SK-MEL-1 human melanoma
Details: male, NRG (NOD.Cg-Rag1tm1Mom Il2rgtm1Wjl/SzJ), mouse, liver, total radioactivity
property: tissue uptake at 120 h (%ID/g)
API: value field is a number in %ID/g; no unit string.

# annotated cases, reported tissue uptake at 120 h shown
1) CCCC[C@H](NC(=O)CN1CCC(NC(=O)[C@H](CCCCNC(=O)CN2CCN(CC(=O)O)CCN(CC(=O)O)CCN(CC(=O)O)CC2)NC(=O)CNC(=O)CCCc2ccc(-c3ccc(C)cc3)cc2)CC1)C(=O)N[C@H]1CC(=O)NCCCC[C@@H](C(N)=O)N(C)C(=O)[C@H](Cc2c[nH]c3ccccc23)NC(=O)[C@H](CCCNC(=N)N)N(C)C(=O)[C@@H](Cc2ccccc2)NC(=O)[C@H](Cc2c[nH]cn2)NC1=O [^177Lu-labeled CCZ01158, metal not drawn]    3.85
2) CCCC[C@H](NC(=O)CN1CCC(NC(=O)[C@H](CCCCNC(=O)CN2CCN(CC(=O)O)CCN(CC(=O)O)CCN(CC(=O)O)CC2)NC(=O)CNC(=O)CCCc2ccc(I)cc2)CC1)C(=O)N[C@H]1CC(=O)NCCCC[C@@H](C(N)=O)N(C)C(=O)[C@H](Cc2c[nH]c3ccccc23)NC(=O)[C@H](CCCNC(=N)N)N(C)C(=O)[C@@H](Cc2ccccc2)NC(=O)[C@H](Cc2c[nH]cn2)NC1=O [^177Lu-labeled CCZ01148, metal not drawn]    4.38

// switching to the query compound
What the record says about CCCC[C@H](NC(=O)CN1CCC(NC(=O)[C@H](CCCCNC(=O)CN2CCN(CC(=O)O)CCN(CC(=O)O)CCN(CC(=O)O)CC2)NC(=O)[C@H](CCC(=O)O)NC(=O)CCCc2ccc(I)cc2)CC1)C(=O)N[C@H]1CC(=O)NCCCC[C@@H](C(N)=O)N(C)C(=O)[C@H](Cc2c[nH]c3ccccc23)NC(=O)[C@H](CCCNC(=N)N)N(C)C(=O)[C@@H](Cc2ccccc2)NC(=O)[C@H](Cc2c[nH]cn2)NC1=O [^177Lu-labeled CCZ01118, metal not drawn] : tissue uptake at 120 h is 2.42
